- Tested on: Jurkat
- methodDescription: Growth inhibition of Homo sapiens (human) Jurkat cells after 72 hr by MTT assay
- Format: functional
In this section, each of the molecules is paired with its reported log10 of GI50.
All values: log10 GI50 [µM].

| substanceSmiles | reading |
| --- | --- |
| CN(C)/C=N/c1cc(-c2ccc(Cl)cc2)nn1-c1ccc(Br)cc1 | 1.93 |
| Nc1cc(-c2ccccc2)nn1-c1ccccc1 | 1.92 |
| CN(C)/C=N/c1cc(-c2ccc(Cl)cc2)nn1-c1cccc(Cl)c1 | 1.87 |
| CN(C)/C=N/c1c(C=O)c(-c2ccc(Cl)cc2)nn1-c1cccc(Cl)c1 | 0.89 |

Turning now to a further molecule:
Asked: Quick one: give measured log10 of GI50 for Cc1ccc(-c2cc(N)n(-c3ccc(Br)cc3)n2)cc1
Given back: 1.65

* * *

- System: Jurkat
- methodDescription: Growth inhibition of Homo sapiens (human) Jurkat cells after 72 hr by MTT assay
- Type: functional
In this section, each of the molecules is paired with its reported GI50.

Solved entries (count: 3):
| substanceSmiles | systemTested | GI50 |
| --- | --- | --- |
| Cc1ccc(-c2nn(-c3ccc(Br)cc3)c(/N=C/N(C)C)c2C=O)cc1 | Jurkat | 6.7 µM |
| Cc1ccc(-c2nn(-c3cccc(Cl)c3)c(N)c2C=O)cc1 | Jurkat | 86.3 µM |
| CN(C)/C=N/c1cc(-c2ccccc2)nn1-c1ccccc1 | Jurkat | > 100 µM |

Asked: Quick one: give measured GI50 for Cc1ccc(-c2cc(/N=C/N(C)C)n(-c3cccc(Cl)c3)n2)cc1
Given back: > 100 µM

Asked: Quick one: give measured GI50 for Cc1ccc(-c2cc(/N=C/N(C)C)n(-c3ccc(Br)cc3)n2)cc1
Given back: > 100 µM

Asked: Quick one: give measured GI50 for Nc1c(C=O)c(-c2ccccc2)nn1-c1ccccc1
Given back: 87.3 µM

* * *

- Tested on: Jurkat
- methodDescription: Growth inhibition of Homo sapiens (human) Jurkat cells after 72 hr by MTT assay
- Type: functional
In this section, each of the compounds is paired with its reported GI50.
Reply numerically in µM, unit not repeated.

Solved entries (count: 3):
| substanceSmiles | systemTested | GI50 [µM] |
| --- | --- | --- |
| CN(C)/C=N/c1c(C=O)c(-c2ccc(Cl)cc2)nn1-c1ccc(Br)cc1 | Jurkat | 38.9 |
| Nc1cc(-c2ccc(Cl)cc2)nn1-c1ccc(Br)cc1 | Jurkat | 61.3 |
| Cc1ccc(-c2nn(-c3cccc(Cl)c3)c(/N=C/N(C)C)c2C=O)cc1 | Jurkat | 7.8 |

Asked: Write GI50 of Nc1c(C=O)c(-c2ccc(Cl)cc2)nn1-c1ccc(Br)cc1 ; system used: Jurkat
Given back: 90.7

Asked: Write GI50 of Cc1ccc(-c2cc(N)n(-c3cccc(Cl)c3)n2)cc1 ; system used: Jurkat
Given back: 56.6

Asked: Write GI50 of Nc1c(C=O)c(-c2ccc(Cl)cc2)nn1-c1cccc(Cl)c1 ; system used: Jurkat
Given back: 78.9

Asked: Write GI50 of Cc1ccc(-c2nn(-c3ccc(Br)cc3)c(N)c2C=O)cc1 ; system used: Jurkat
Given back: 34.4
